# assay comment: NCI Yeast Anticancer Drug Screen. Data for the mlh1 rad18 strain (AID 175)
# protocol conditions: S. cerevisiae mlh1 rad18 strain growth inhibition; at 50.0 µM
About 79,000 compounds went through this panel and 15% of them were active in at least one assay; those are over-represented in the sample as a whole. The source made the active and inactive calls. Cut-off read from the data, not from the text of the source: active = growth inhibition above about 70%; inactive = the rest.
Thanks in advance; please answer with one of these: active, inactive

[[record]]
compound = "CN(C)CC(CN(C)C)C(=O)c1ccc(Oc2ccc(Cl)c(Cl)c2)cc1"
assigned_category = "active"


Prompt line: Please indicate how the test categorized CCCCCCCNCCCCCC .
Response line: inactive

====

# assay comment: NCI Yeast Anticancer Drug Screen. Data for the cln2 rad14 strain (AID 165)
# protocol conditions: S. cerevisiae cln2 rad14 strain, at 50.0 µM
The panel holds about 79,000 compounds, 15% with a hit somewhere; the sample as a whole holds those more often. Activity calls are given as the source filed them. Rule as the data show it: active = growth inhibition above about 70%; inactive = the rest.
Thanks in advance; please answer with one of these: active, inactive

Consider the following illustrative entries.
[[record]]
compound = "O=c1ccccc(Br)c1O"
assigned_category = "active"

[[record]]
compound = "Nc1c(/C=C/c2cc3cc(C4=NCCN4)ccc3o2)[nH]c2cc(C3=NCCN3)ccc12"
assigned_category = "active"

[[record]]
compound = "CNc1ccc(N)cc1"
assigned_category = "inactive"


Prompt line: Please indicate how the test categorized O=S(=O)(Nc1ccnn1-c1ccccc1)c1ccc(N=Cc2c3ccccc3nc3cc(Cl)ccc23)cc1 .
Response line: inactive

Prompt line: Please indicate how the test categorized N#CC1Oc2ccccc2N1C(=O)c1ccccc1 (stereo unspecified) .
Response line: inactive

Prompt line: Please indicate how the test categorized Nc1nccc(NCCCCCCNc2ccnc(N)n2)n1 .
Response line: inactive

Prompt line: Please indicate how the test categorized c1ccc(CSc2nnc3c4ccccc4c4ccccc4c3n2)cc1 .
Response line: inactive

Prompt line: Please indicate how the test categorized COCC1C(=O)c2cc3c(cc2C12C=CC1(C=C2)OCCO1)OCO3 (stereo unspecified) .
Response line: active

Prompt line: Please indicate how the test categorized Cc1ccc(N=C(N)NN=C(c2ccc(Cl)cc2)c2ccc(Cl)cc2)cc1 .
Response line: active

Prompt line: Please indicate how the test categorized O=C(Nc1c(Cl)cccc1Cl)OCCOc1ccc(Cl)cc1Cl .
Response line: active

Prompt line: Please indicate how the test categorized Cc1cc(Cl)ccc1OCC(=O)Oc1c(Cl)c(Cl)c(Cl)c(Cl)c1Cl .
Response line: inactive

Prompt line: Please indicate how the test categorized Nc1nc2nc(I)[nH]c2c(=O)[nH]1 .
Response line: inactive

Prompt line: Please indicate how the test categorized CC(C)OC(=O)c1ccc(NCC2=CC(=O)C=CC2=O)cc1Cl .
Response line: active
